- assayed-target: EGFR (Homo sapiens, UniProt P00533, DEL746-750)
- Construct: endogenous in cells; host or cells: HCC827
- Sequence (P00533 with tags, fused parts or gaps DEL746-750): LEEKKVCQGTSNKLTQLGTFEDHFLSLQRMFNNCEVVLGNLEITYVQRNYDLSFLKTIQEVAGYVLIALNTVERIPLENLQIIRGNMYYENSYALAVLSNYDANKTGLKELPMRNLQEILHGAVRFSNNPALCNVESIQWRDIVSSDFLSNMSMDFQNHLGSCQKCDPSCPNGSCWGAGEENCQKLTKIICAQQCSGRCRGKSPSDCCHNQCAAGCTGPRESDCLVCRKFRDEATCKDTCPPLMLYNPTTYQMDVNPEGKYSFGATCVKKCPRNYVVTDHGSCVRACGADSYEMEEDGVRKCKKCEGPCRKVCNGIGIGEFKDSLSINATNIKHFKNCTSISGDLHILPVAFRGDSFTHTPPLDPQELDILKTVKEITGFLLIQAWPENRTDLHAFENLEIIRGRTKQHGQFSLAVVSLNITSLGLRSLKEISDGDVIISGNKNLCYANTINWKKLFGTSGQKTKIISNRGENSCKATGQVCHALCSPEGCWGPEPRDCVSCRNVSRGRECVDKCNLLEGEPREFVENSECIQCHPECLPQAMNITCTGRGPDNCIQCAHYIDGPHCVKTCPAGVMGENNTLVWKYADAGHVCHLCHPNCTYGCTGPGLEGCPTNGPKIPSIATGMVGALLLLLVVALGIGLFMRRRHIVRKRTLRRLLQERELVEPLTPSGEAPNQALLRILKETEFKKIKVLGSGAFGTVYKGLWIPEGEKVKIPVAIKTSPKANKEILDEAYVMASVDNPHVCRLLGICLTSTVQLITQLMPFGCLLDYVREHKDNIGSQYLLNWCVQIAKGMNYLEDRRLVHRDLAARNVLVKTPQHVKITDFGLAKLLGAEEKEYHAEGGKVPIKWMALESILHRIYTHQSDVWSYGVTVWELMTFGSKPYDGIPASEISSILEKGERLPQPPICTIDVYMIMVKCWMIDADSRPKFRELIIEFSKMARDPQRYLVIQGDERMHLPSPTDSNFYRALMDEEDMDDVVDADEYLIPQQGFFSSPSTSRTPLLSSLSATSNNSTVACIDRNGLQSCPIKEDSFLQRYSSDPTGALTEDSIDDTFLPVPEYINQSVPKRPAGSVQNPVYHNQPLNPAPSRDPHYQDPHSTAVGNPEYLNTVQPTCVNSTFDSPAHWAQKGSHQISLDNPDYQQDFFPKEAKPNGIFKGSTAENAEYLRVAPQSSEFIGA
- Sequence (Q96SW2 whole entry partner): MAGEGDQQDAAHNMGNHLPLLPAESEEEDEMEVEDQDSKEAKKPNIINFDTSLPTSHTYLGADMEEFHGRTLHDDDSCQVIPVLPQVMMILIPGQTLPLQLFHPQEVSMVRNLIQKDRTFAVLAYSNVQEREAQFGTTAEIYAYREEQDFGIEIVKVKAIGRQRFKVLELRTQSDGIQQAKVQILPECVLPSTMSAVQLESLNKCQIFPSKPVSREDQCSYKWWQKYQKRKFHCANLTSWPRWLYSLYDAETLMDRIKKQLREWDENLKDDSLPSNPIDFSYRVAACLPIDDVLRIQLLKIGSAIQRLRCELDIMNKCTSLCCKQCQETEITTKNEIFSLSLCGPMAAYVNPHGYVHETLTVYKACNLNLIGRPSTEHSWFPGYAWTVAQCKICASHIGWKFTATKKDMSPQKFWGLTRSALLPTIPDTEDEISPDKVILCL
- assay-remarks: Cell Degradation 2: EGFR degradation in HCC827 cells, HTRF assay
- Assay type: cell-based
- protocol-conditions: 16 h treatment, EGFR degradation by HTRF
# DC50 values compiled below
Numeric only. Scale: nM

Example entries and their recorded answers appear below.
{"columns": ["compound", "DC50, nM"],
 "data": [
  ["CS(=O)(=O)N1CCc2cccc(Nc3nc(Nc4ccc(N5CCC(N6CCN(CCC7CCN(c8ccc9c(c8)CN(C8CCC(=O)NC8=O)C9=O)CC7)CC6)CC5)c(F)c4)nc4[nH]ccc34)c21 (stereo not drawn)", 10.8],
  ["CS(=O)(=O)N1CCc2cccc(Nc3nc(Nc4ccc(N5CCC(N6CCN(C(=O)C7CN(c8ccc9c(c8)C(=O)N(C8CCC(=O)NC8=O)C9=O)C7)CC6)CC5)c(F)c4)ncc3Cl)c21 (stereo not drawn)", 1.7],
  ["CS(=O)(=O)N1CCc2cccc(Nc3nc(Nc4ccc(N5CCC(N6CCN(CCc7cc(F)c(C8CCC(=O)NC8=O)c(F)c7)CC6)CC5)c(F)c4)nc4[nH]ccc34)c21 (stereo not drawn)", 17.6]
]}

State its DC50: COc1cc(N2CCC(N3CCN(CCC4CCN(c5ccc(C6CCC(=O)NC6=O)c(F)c5)CC4)CC3)CC2)c(C)cc1Nc1ncc(Br)c(Nc2cccc3c2N(S(C)(=O)=O)CC3)n1 (stereo not drawn)
40.2

State its DC50: CS(=O)(=O)N1CCc2cccc(Nc3nc(Nc4ccc(N5CCC(N6CCN(CCOc7cccc8c7CN(C7CCC(=O)NC7=O)C8=O)CC6)CC5)c(F)c4)nc4[nH]ccc34)c21 (stereo not drawn)
14.7

Sourced from patent US12643903B2
